# Test system: NCI-H187
# Protocol details: Cytotoxicity against human NCI-H187 cells after 5 days by resazurin microplate assay
# Type: functional, cell-based
# Condition notes: NCI-H187, 120 h
pIC50: −log10 of the molar value.
Quantity name: pIC50

# Cpd smiles, Test result
measured = [
    ("CC(C)(CNC(=O)c1ccccc1O)CC1=C(O)C(=O)c2ccccc2C1=O", 5.05),
    ("COc1ccccc1C(=O)NCC(C)(C)CC1=C(O)C(=O)c2ccccc2C1=O", 4.37),
    ("COc1cc(C(=O)NCC(C)(C)CC2=C(O)C(=O)c3ccccc3C2=O)c(OC)c2ccccc12", 4.70),
    ("COc1ccc(OC)c(C(=O)NCC(C)(C)CC2=C(O)C(=O)c3ccccc3C2=O)c1", 4.39),
    ("COC1=C(CC(C)(C)CNC(=O)c2ccc3ccccc3c2)C(=O)c2ccccc2C1=O", 4.59),
    ("CC(C)(CNC(=O)c1ccc2ccccc2c1)CC1=C(O)C(=O)c2ccccc2C1=O", 4.71),
    ("CC(C)(CNC(=O)c1ccccc1)CC1=C(O)C(=O)c2ccccc2C1=O", 4.40),
    ("CC(C)(CNC(=O)c1ccc2ccccc2c1O)CC1=C(O)C(=O)c2ccccc2C1=O", 4.84),
    ("COC1=C(CC(C)(C)CNC(=O)c2cc(OC)ccc2OC)C(=O)c2ccccc2C1=O", 4.13),
    ("COC1=C(CC(C)(C)CNC(=O)c2ccccc2)C(=O)c2ccccc2C1=O", 4.72),
    ("COc1ccc(O)c(C(=O)NCC(C)(C)CC2=C(O)C(=O)c3ccccc3C2=O)c1", 4.83),
]
